test: inhibitors of TNFa-induced NFkB p65 translocation, primary screen, imaging, HUVEC, MLSMR starter and 10KST1 sets (AID 438); conditions: HUVEC TNFa-induced p65 nuclear translocation; at 2 µM, hits give high values, 0% TNFa-plus-vehicle, 100% no-TNFa wells;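 also: compound added about 3h40 before a 20 min TNFalpha stimulation; signal is the nuclear over cytoplasmic p65 intensity ratio per well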
Would you mind telling me the reported inhibition of each entry?
One number for each entry, in %.

CC(=O)OCC(=O)[C@H]1CC[C@H]2[C@@H]3CCC4=CC(=O)CC[C@]4(C)[C@H]3CC[C@]12C; -7.8
C=CCNc1nnc(SC2CC(=O)N(c3ccc(OC)cc3)C2=O)s1 (stereo unspecified); -3.2
Cc1cc(C)nc(NC2=NCC(=O)N2c2ccccc2)n1; -3.5
COc1ccc(OC)c(C2NC(=O)c3sc(=S)n(-c4ccccc4)c3N2)c1 (stereo unspecified); -8.4
N#Cc1ccc(-c2ccco2)nc1SCC(=O)c1ccc(Cl)cc1; 0

// batch mode: one inhibition value per listed entry
1. C/C(=N\O)C(=O)NCCCNCCCN(C)C
2. CC(C)Cn1cnc2c(c1=O)c1nc3ccccc3nc1n2Cc1ccc2c(c1)OCO2
3. CCC(C(=O)OCCN(CC)CC)c1ccccc1 (stereo unspecified)

A.
[-2.7, -3.7, -11.1]
